The origin of these recorded values is PubChem BioAssay.

viability values for the compounds below.
test: drug combination growth inhibition, ovarian cancer – cell-based, oncology-focused library, rucaparib conditional, profiling panel (AID 1508598)
experimental.setup: patient-derived ovarian cancer cells, CellTiter-Glo viability, 144 h; at 0.00122 µM; OCI-C5x cells; with rucaparib 10 µM; hits give low values; 100% = cells with rucaparib alone
Report the figure in % without appending any unit label.

// solved cases for viability follow
# smiles.structure, viability / %
data = [
    ("CN1CCN(CCOc2cc(OC3CCOCC3)c3c(Nc4c(Cl)ccc5c4OCO5)ncnc3c2)CC1", 107),
    ("Cc1csc(-c2nnc(Nc3ccc(Oc4ncccc4-c4ccnc(N)n4)cc3)c3ccccc23)c1", 109),
    ("CN1CCN(c2cccc(Nc3nc4c(-c5ccc(S(C)(=O)=O)cc5)cccn4n3)c2)CC1", 115),
    ("CC(C)OC(=O)C1=CN(C(=O)c2ccc(F)c(F)c2)CC(C)(C)c2c1[nH]c1ccccc21", 116),
]

Kindly consider the entry below.
[ask] Which measured viability value corresponds to CN(C)N=Nc1nc[nH]c1C(N)=O ?
[reply] 106

###

test: drug combination growth inhibition, ovarian cancer – cell-based, oncology-focused library, rucaparib conditional, profiling panel (AID 1508598)
experimental.setup: patient-derived ovarian cancer cells, CellTiter-Glo viability, 144 h; at 0.00122 µM; OCI-P5x cells; without rucaparib
Activity calls are given as the source filed them.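 The calls were made as follows: active = normalized viability below 100% at a tested concentration; inactive = the rest.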
Outcome (select one): active, inactive

Here are 6 compounds together with their reported answers.
# smiles.structure, label.value
records = [
    ("Cc1cc(Nc2cc(N3CCN(C)CC3)nc(/C=C/c3ccccc3)n2)n[nH]1", "inactive"),
    ("Cc1csc(-c2nnc(Nc3ccc(Oc4ncccc4-c4ccnc(N)n4)cc3)c3ccccc23)c1", "active"),
    ("CC[C@H](Nc1ncnc2nc[nH]c12)c1nc2cccc(F)c2c(=O)n1-c1ccccc1", "inactive"),
    ("Cn1cnc(=N)c2[nH]cnc21", "active"),
    ("CN1CCC(CNc2ccc3ncc(-c4cccc(OC(F)(F)F)c4)n3n2)CC1", "active"),
    ("Cc1cccc(-c2nn3c(c2-c2ccnc4ccc(C(N)=O)cc24)CCC3)n1", "inactive"),
]

[ask] Could you please tell me the result logged for CN(C)N=Nc1nc[nH]c1C(N)=O in this assay?
[reply] inactive

[ask] Which result was noted for this compound in the test: COCCn1c2c([n+](Cc3cnccn3)c1C)C(=O)c1ccccc1C2=O
[reply] active

[ask] Could you please tell me the result logged for COc1cc(OC2CCN(C)CC2)ccc1Nc1ncc2c(n1)n(C1CCCC1)c(=O)n2C in this assay?
[reply] inactive

[ask] What was the test verdict on CCn1c(-c2nonc2N)nc2c(C#CC(C)(C)O)ncc(OC[C@H]3CCCNC3)c21 ?
[reply] active

[ask] Test call for this compound, please: COc1cc2nccc(Oc3ccc(NC(=O)NC4CC4)c(Cl)c3)c2cc1C(N)=O
[reply] inactive

###

test: growth inhibition of DIPG cells – cell-based, MIPE4.0 library, CellTiter-Glo luminescence, qHTS (AID 1347066);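 note: cells exposed to compound for 48 hours before readout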
experimental.setup: SU-DIPG-VI viability, CellTiter-Glo ATP luminescence
Results filed as inconclusive are left out. The source made the active and inactive calls. Cut-off not given; nearly all actives show AC50 up to about 30 µM.
Thanks in advance; please answer with one of these: T (active), F (inactive)

# smiles.structure, label.value
rows = [
    ("COc1cccc2nc(-c3cccs3)nc(NN3C(=O)C=C(C)C3=O)c12", "T"),
    ("CC(C)(N)C(=O)N[C@H](COCc1ccccc1)C(=O)N1CCC2(CC1)CN(S(C)(=O)=O)c1ccccc12", "F"),
    ("CN(C)c1nc(Cc2ccc(NC(=O)c3ccc(C(F)(F)F)cc3)cc2)nc(N(C)C)c1CC(=O)O", "F"),
    ("Cc1cnc(Nc2ccc(F)cc2Cl)nc1-c1c[nH]c(C(=O)N[C@H](CO)c2cccc(Cl)c2)c1", "T"),
    ("C[C@@H](Cc1cc2c(c(C(N)=O)c1)N(CCCO)CC2)NCCOc1ccccc1OCC(F)(F)F", "F"),
]

In the following, a different molecule is considered.
[ask] Please indicate how the test categorized Cc1cccc(-c2nn(C(=S)Nc3ccccc3)cc2-c2ccnc3ccccc23)n1 .
[reply] F
